Target: progesterone receptor (Homo sapiens)
Experiment: PR transactivation assay, antagonistic activity (PR luciferase reporter)
Type: cell-based
Settings: T47D cells, stimulant R5020; read-out: IC50 Average of 2 expts
Description: Transactivation Assay for Progesterone Agonist and Antagonistic Activity (See Table 1). Experimental: PR transactivation studies was carried out in human breast cancer (T47D) cells, grown in RPMI medium without phenol red and 5% charcoal stripped fetal bovine serum, transiently transfected with PR luciferase reporter (CCS-6043L signal reporter assay kit, Qiagen). The cells were stimulated R5020 as PR agonist and treated in the presence or absence of the tested compounds for 24 hours.
pIC50: −log10 of the molar value.
assay_endpoint: pIC50

The cases that follow already have their pIC50 on record.
>  <compound>
COCC(=O)[C@@]1(OC(C)=O)CC[C@H]2[C@@H]3CCC4=CC(=O)CCC4=C3[C@@H](c3ccc(N(C)C)cc3)C[C@@]21C [CDB-4124, reference compound]

>  <pIC50>
9.15

$$$$
>  <compound>
C[C@]12C[C@H](c3ccc(S(C)(=O)=O)cc3)C3=C4CCC(=O)C=C4CC[C@H]3[C@@H]1CC[C@@]2(O)C(F)(F)C(F)(F)F [BAY 1002670, reference compound]

>  <pIC50>
9.49

$$$$
>  <compound>
C=C[C@@H]1CC2C3CCC4=CC(=O)CCC4=C3[C@@H](c3ccc(-c4ccoc4)cc3)C[C@]2(C)C1C(C)=O (stereo partly drawn) [EC345]

>  <pIC50>
9.00

$$$$
>  <compound>
CC[C@@H]1CC2C3CCC4=CC(=O)CCC4=C3[C@@H](c3ccc(-c4ccoc4)cc3)C[C@]2(C)C1C(C)=O (stereo partly drawn) [EC343]

>  <pIC50>
8.68

$$$$
>  <compound>
C=C[C@@H]1CC2C3CCC4=CC(=O)CCC4=C3[C@@H](c3ccc(-n4ccnc4)cc3)C[C@]2(C)C1C(C)=O (stereo partly drawn) [EC347]

>  <pIC50>
9.02

$$$$
>  <compound>
C=C1CCOC12CCC1C3CCC4=CC(=O)CCC4=C3[C@@H](c3ccc(-n4ccnc4)cc3)C[C@@]12C (stereo partly drawn) [EC336]

>  <pIC50>
8.30

$$$$

[P] CC[C@@H]1CC2C3CCC4=CC(=O)CCC4=C3[C@@H](c3ccc(-n4ccnc4)cc3)C[C@]2(C)C1C(C)=O (stereo partly drawn) [EC346]
[Q] CC[C@@H]1CC2C3CCC4=CC(=O)CCC4=C3[C@@H](c3ccc(-c4cccnc4)cc3)C[C@]2(C)C1C(C)=O (stereo partly drawn) [EC-342]
[R] C[C@]12C[C@H](c3ccc(-c4ccoc4)cc3)C3=C4CCC(=O)C=C4CCC3C1CCC21OCCC1=C(F)F (stereo partly drawn) [EC-313]
Returns the items ordered by pIC50, from maximum to minimum. # format: label list in the order the request specifies
P, R, Q
(P: 9.52, R: 9.30, Q: 9.02)

[1] CC(=O)C1[C@H](C)CC2C3CCC4=CC(=O)CCC4=C3[C@@H](c3ccc(-c4cccnc4)cc3)C[C@@]21C (stereo partly drawn) [EC348]
[2] C[C@]12C[C@H](c3ccc(-c4cccnc4)cc3)C3=C4CCC(=O)C=C4CCC3C1CCC21OCCC1=C(F)F (stereo partly drawn) [EC-312]
Recorded pIC50 values differ for 1 and 2 ; which one is higher? # reply format: chosen label
1
(1: 9.41, 2: 9.20)

----------
Molecular target: progesterone receptor (Homo sapiens, UniProt P06401)
Assay: PR transactivation assay, agonistic activity (PR luciferase reporter)
Type: cell-based
Conditions: T47D cells, stimulant R5020; read-out: EC50
assay_endpoint: EC50 (nM)

[P] CC[C@@H]1CC2C3CCC4=CC(=O)CCC4=C3[C@@H](c3ccc(-c4cccnc4)cc3)C[C@]2(C)C1C(C)=O (stereo partly drawn) [EC-342]
[Q] COCC(=O)[C@@]1(OC(C)=O)CC[C@H]2[C@@H]3CCC4=CC(=O)CCC4=C3[C@@H](c3ccc(N(C)C)cc3)C[C@@]21C [CDB-4124, reference compound]
[R] C=C[C@@H]1CC2C3CCC4=CC(=O)CCC4=C3[C@@H](c3ccc(-c4ccoc4)cc3)C[C@]2(C)C1C(C)=O (stereo partly drawn) [EC345]
Put the compounds in ascending order of EC50. # format: label list in the order the request specifies
P, Q, R

----------
Target: progesterone receptor (Homo sapiens)
Sequence (P06401 165-933 limits assumed): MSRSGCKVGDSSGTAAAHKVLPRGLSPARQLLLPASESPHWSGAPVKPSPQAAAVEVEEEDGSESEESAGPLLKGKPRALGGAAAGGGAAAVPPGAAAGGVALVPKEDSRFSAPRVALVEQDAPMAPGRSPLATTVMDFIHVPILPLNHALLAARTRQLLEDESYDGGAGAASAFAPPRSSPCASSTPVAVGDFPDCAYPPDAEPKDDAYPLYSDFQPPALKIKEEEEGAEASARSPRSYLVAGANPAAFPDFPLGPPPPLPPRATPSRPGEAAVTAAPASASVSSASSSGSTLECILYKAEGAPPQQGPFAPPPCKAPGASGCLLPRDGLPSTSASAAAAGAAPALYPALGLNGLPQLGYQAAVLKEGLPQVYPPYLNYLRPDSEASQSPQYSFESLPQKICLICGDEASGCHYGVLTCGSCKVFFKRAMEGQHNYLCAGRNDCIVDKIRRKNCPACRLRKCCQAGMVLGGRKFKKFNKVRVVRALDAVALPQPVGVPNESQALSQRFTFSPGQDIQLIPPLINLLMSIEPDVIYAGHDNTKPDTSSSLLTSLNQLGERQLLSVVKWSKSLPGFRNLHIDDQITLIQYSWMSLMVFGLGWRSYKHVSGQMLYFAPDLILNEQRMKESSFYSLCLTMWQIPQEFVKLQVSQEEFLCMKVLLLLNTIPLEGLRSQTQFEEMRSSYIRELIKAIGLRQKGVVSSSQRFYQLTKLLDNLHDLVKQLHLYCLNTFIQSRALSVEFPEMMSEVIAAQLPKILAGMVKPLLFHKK
Experiment: PR transactivation assay, antagonistic activity (PR luciferase reporter)
Assay type: cell-based
Conditions: T47D cells, stimulant R5020
Procedure: Transactivation Assay for Progesterone Agonist and Antagonistic Activity (See Table 1). Experimental: PR transactivation studies was carried out in human breast cancer (T47D) cells, grown in RPMI medium without phenol red and 5% charcoal stripped fetal bovine serum, transiently transfected with PR luciferase reporter (CCS-6043L signal reporter assay kit, Qiagen). The cells were stimulated R5020 as PR agonist and treated in the presence or absence of the tested compounds for 24 hours.
assay_endpoint: Antagonist rel to RU486 (%)

[A] C[C@]12C[C@H](c3ccc(S(C)(=O)=O)cc3)C3=C4CCC(=O)C=C4CC[C@H]3[C@@H]1CC[C@@]2(O)C(F)(F)C(F)(F)F [BAY 1002670, reference compound]
[B] CC(=O)O[C@]1(C(C)=O)CC[C@H]2[C@@H]3CCC4=CC(=O)CCC4=C3[C@@H](c3ccc(N(C)C)cc3)C[C@@]21C [CDB-2914, reference compound]
[C] CC[C@@H]1CC2C3CCC4=CC(=O)CCC4=C3[C@@H](c3ccc(-c4ccoc4)cc3)C[C@]2(C)C1C(C)=O (stereo partly drawn)
Place the item with the largest Antagonist rel to RU486 (%) first, then continue in falling order, using the list above. # format: label list in the order the request specifies
A, B, C

----------
Biological target: progesterone receptor (Homo sapiens)
Assay: PR transactivation assay, agonistic activity (PR luciferase reporter)
Format: cell-based
Settings: T47D cells, stimulant R5020; read-out: EC50
pEC50: −log10 of the molar value.
assay_endpoint: pEC50

>  <compound>
CC(=O)C1[C@H](C)CC2C3CCC4=CC(=O)CCC4=C3[C@@H](c3ccc(-c4cccnc4)cc3)C[C@@]21C (stereo partly drawn)

>  <subject_of_test>
progesterone receptor (Homo sapiens)

>  <pEC50>
8.34

$$$$

[A] CC[C@@H]1CC2C3CCC4=CC(=O)CCC4=C3[C@@H](c3ccc(-c4ccoc4)cc3)C[C@]2(C)C1C(C)=O (stereo partly drawn)
[B] C[C@]12C[C@H](c3ccc(-c4cccnc4)cc3)C3=C4CCC(=O)C=C4CCC3C1CCC21OCCC1=C(F)F (stereo partly drawn)
Select one. Lower pEC50: A or B # reply format: chosen label
B
(B: 7.29, A: 8.32)

----------
Target: progesterone receptor (Homo sapiens)
Assay: PR transactivation assay, antagonistic activity (PR luciferase reporter)
Type: cell-based
Conditions: T47D cells, stimulant R5020
assay_endpoint: Antagonist rel to RU486 (%)

>  <compound>
CC(=O)C1[C@H](C)CC2C3CCC4=CC(=O)CCC4=C3[C@@H](c3ccc(-c4cccnc4)cc3)C[C@@]21C (stereo partly shown)

>  <Antagonist rel to RU486 (%)>
292.7

$$$$

[P] C=C1CCOC12CCC1C3CCC4=CC(=O)CCC4=C3[C@@H](c3ccc(-n4ccnc4)cc3)C[C@@]12C (stereo partly shown)
[Q] C=C[C@@H]1CC2C3CCC4=CC(=O)CCC4=C3[C@@H](c3ccc(-c4ccoc4)cc3)C[C@]2(C)C1C(C)=O (stereo partly shown)
Recorded Antagonist rel to RU486 (%) values differ for P and Q ; which one is higher? # reply format: chosen label
Q
